All values here come from patent US20260265246A1.

biological target: 5HT2A receptor (Homo sapiens, UniProt P28223); assay: cell-based; design: expressed in transfected cells; host or cells: HEK293T cells, transient co-transfection; conditions: 5HT2A β-Arr EC50 (nM), BRET1 beta-arrestin2 recruitment, HEK293T cells
Sequence (P28223 whole entry): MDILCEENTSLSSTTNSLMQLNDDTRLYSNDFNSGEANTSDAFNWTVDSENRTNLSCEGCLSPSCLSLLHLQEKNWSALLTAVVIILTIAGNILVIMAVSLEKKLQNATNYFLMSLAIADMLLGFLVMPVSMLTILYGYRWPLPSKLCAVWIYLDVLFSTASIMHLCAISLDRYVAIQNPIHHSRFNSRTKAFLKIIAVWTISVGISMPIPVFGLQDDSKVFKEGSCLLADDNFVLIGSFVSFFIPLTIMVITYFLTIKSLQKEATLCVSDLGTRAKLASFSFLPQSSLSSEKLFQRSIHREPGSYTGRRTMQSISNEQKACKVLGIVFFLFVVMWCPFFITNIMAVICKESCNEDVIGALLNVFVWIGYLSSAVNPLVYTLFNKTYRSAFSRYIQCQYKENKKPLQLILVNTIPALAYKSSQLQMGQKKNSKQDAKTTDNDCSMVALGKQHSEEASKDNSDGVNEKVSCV
Quick rule for you: EC50 under 200 nM gets y, anything else gets n.

| Record smiles | Measurement target | Answer label |
| --- | --- | --- |
| Clc1[nH]c2ccccc2c1C1=CCCNC1 | 5HT2A receptor (Homo sapiens, UniProt P28223) | n |
| C1=C(c2n[nH]c3ccccc23)CNCC1 | 5HT2A receptor (Homo sapiens, UniProt P28223) | y |
| CN1CCC=C(c2c[nH]c3ncc(Cl)cc23)C1 | 5HT2A receptor (Homo sapiens, UniProt P28223) | y |
| Cc1cc(F)cc2c(C3=CCCN(C)C3)c[nH]c12 | 5HT2A receptor (Homo sapiens, UniProt P28223) | y |
| CCc1cccc2c(C3=CCCN(C)C3)n[nH]c12 | 5HT2A receptor (Homo sapiens, UniProt P28223) | n |
| CN1CCC=C(c2n[nH]c3ccccc23)C1 | 5HT2A receptor (Homo sapiens, UniProt P28223) | y |
| COc1cnc2[nH]cc(C3=CCCNC3)c2c1 | 5HT2A receptor (Homo sapiens, UniProt P28223) | n |
| CN1CCC=C(c2c[nH]c3ncc(F)cc23)C1 | 5HT2A receptor (Homo sapiens, UniProt P28223) | y |
| CN1CCC=C(c2n[nH]c3cccc(F)c23)C1 | 5HT2A receptor (Homo sapiens, UniProt P28223) | n |
| Clc1ccnc2[nH]cc(C3=CCCNC3)c12 | 5HT2A receptor (Homo sapiens, UniProt P28223) | n |
| C#CCN1CCC=C(c2n[nH]c3c(Cl)cccc23)C1 | 5HT2A receptor (Homo sapiens, UniProt P28223) | n |
